- System: NCI-H522 lung
- PROCEDURE_TEXT: NCI tumour cell line growth inhibition, 48 h; in the data active = GI50 below about 0.43 µM; inactive = the rest
Outcomes: 1 (yes) for active, 0 (no) for inactive

COMPOUND: Nc1ccccc1SC1CC(=O)N(c2ccc(Cl)c(Cl)c2)C1=O (centres undefined)
GROUP_LABEL: 0 (no)
--
COMPOUND: Cn1cc(-c2ccc(-c3cncc(Cl)c3N3CCC4(CCNC4=O)CC3)cc2)cn1
GROUP_LABEL: 0 (no)
--
COMPOUND: O=C1CSC(c2ccc(-c3nc4ccccc4s3)cc2)=N1
GROUP_LABEL: 0 (no)
--
COMPOUND: O=C(NCc1ccc(S(=O)(=O)c2cc(F)cc(F)c2)cc1)c1ccc2nccn2c1
GROUP_LABEL: 1 (yes)
--
COMPOUND: CCCCCc1ccc(S(=O)(=O)Nc2cc(-c3csc(NC(C)=O)n3)ccc2N2CCN(C)CC2)cc1
GROUP_LABEL: 0 (no)
--
COMPOUND: C[C@H]1CCC/C=C/[C@@H]2C[C@H](O)C[C@H]2[C@H](O)[C@@H](SCC(O)CO)CC(=O)O1 (some centres undefined)
GROUP_LABEL: 0 (no)
--
COMPOUND: O=C1C(Cl)=C(Nc2ccccc2O)C(=O)N1Cc1ccccc1
GROUP_LABEL: 0 (no)
--
COMPOUND: C=C1CC[C@@H](C(C)C)C[C@@H]2[C@H]([C@H](O)C[C@]2(C)O)[C@@]2(C)CC[C@@H]1O2
GROUP_LABEL: 0 (no)
--
COMPOUND: O=c1oc2ccc(Br)cc2c(=O)n1-c1ccc(F)cc1F
GROUP_LABEL: 0 (no)

###

- Test system: KM12 colon
- PROCEDURE_TEXT: NCI tumour cell line growth inhibition, 48 h; in the data active = GI50 below about 0.43 µM; inactive = the rest
Outcomes: y = active, n = inactive

COMPOUND: N.N.NCCCCCCCCCN.O=C([O-])CC(=O)[O-].O=C([O-])CC(=O)[O-].[Pt+4].[Pt+4]
GROUP_LABEL: n
--
COMPOUND: Cc1cc(C)n(-c2nnc3n2N=C(c2ccc(-c4ccccc4)cc2)CS3)n1
GROUP_LABEL: n
--
COMPOUND: O=C(NO)c1ccc(CN(c2cnccn2)c2cnccn2)cc1
GROUP_LABEL: n
--
COMPOUND: Clc1cc(Cl)cc(Nc2ccc3cc(OCCCN4CCOCC4)ccc3n2)c1
GROUP_LABEL: n
--
COMPOUND: C/C(=N\NC(=S)N1CC2CCC(CC2)C1)c1ccccn1
GROUP_LABEL: y
--
COMPOUND: COc1ccc(Cc2cnc(NC(=O)c3ccc4c(c3)OCCO4)s2)cc1
GROUP_LABEL: y
--
COMPOUND: S=C1SC2=Nc3ccccc3CN2C2=NCCN12
GROUP_LABEL: n
--
COMPOUND: C[C@H]1CCC/C=C/[C@@H]2C[C@H](O)C[C@H]2[C@H](O)[C@@H](SCC(O)CO)CC(=O)O1 (some centres not stated)
GROUP_LABEL: n
--
COMPOUND: O=C(Nc1ccc(Cl)c(Cl)c1)Nc1ccccc1O
GROUP_LABEL: n
--
COMPOUND: C=C1CC[C@@H](C(C)C)C[C@@H]2[C@H]([C@H](O)C[C@]2(C)O)[C@@]2(C)CC[C@@H]1O2
GROUP_LABEL: n
--
COMPOUND: COC(=O)CCC1=C(CC(=O)OC)C(C)=N/C1=C\c1[nH]c(-c2ccc[nH]2)cc1OC
GROUP_LABEL: n
--
COMPOUND: O=C(N/N=C/c1ccc([N+](=O)[O-])o1)c1ccc(O)cc1
GROUP_LABEL: n

###

- Test system: NCI-H23 lung
- PROCEDURE_TEXT: NCI tumour cell line growth inhibition, 48 h; in the data active = GI50 below about 0.43 µM; inactive = the rest
Outcome codes: active, inactive

MOLECULE: O=C(OCc1ccc2c(Cl)cc(Cl)c(O)c2n1)N1CCN(C(=O)c2cc3cc(F)ccc3[nH]2)CC1
GROUP_LABEL: inactive
//
MOLECULE: Cn1cc(-c2ccc(-c3cncc(Cl)c3N3CCC4(CCNC4=O)CC3)cc2)cn1
GROUP_LABEL: inactive
//
MOLECULE: N#Cc1ccc(OC(=O)Nc2ccc(Cl)c(Cl)c2)cc1
GROUP_LABEL: inactive
//
MOLECULE: COc1ccc(/C=C(/c2ccccc2)[N+](=O)[O-])cc1
GROUP_LABEL: inactive
//
MOLECULE: COc1ccc(Cc2cnc(NC(=O)c3ccc4c(c3)OCCO4)s2)cc1
GROUP_LABEL: active

###

Measured GI50, listed per entry.
- Tested on: T-47D breast
- PROCEDURE_TEXT: NCI tumour cell line growth inhibition, 48 h

MOLECULE: C[C@]12CC[C@@H]3c4ccc(O)c([N+](=O)[O-])c4CC[C@H]3[C@@H]1CC[C@@H]2NS(=O)(=O)c1cccc(Br)c1
GI50: 1.8 µM

MOLECULE: NC(=S)N/N=C/c1cc(-c2cccc(N)c2)ccn1
GI50: 1.34 µM

MOLECULE: O=c1[nH]c(=O)n([C@H]2CCCO2)cc1F
GI50: 2610 µM

MOLECULE: Clc1ccc(N=CNc2ccc(-c3nc4ccccc4o3)cc2)cc1
GI50: 13.1 µM

MOLECULE: CC[C@@]1(O)C(=O)OCc2c1cc1n(c2=O)Cc2c-1nc1cc(F)c(C)c3c1c2[C@@H](N)CC3
GI50: < 0.01 µM

MOLECULE: CCCCCc1ccc(S(=O)(=O)Nc2cc(-c3csc(NC(C)=O)n3)ccc2N2CCN(C)CC2)cc1
GI50: 4.8 µM

MOLECULE: N#Cc1ccc(OC(=O)Nc2ccc(Cl)c(Cl)c2)cc1
GI50: 3.15 µM

MOLECULE: COc1ccc(Cc2cnc(NC(=O)c3ccc4c(c3)OCCO4)s2)cc1
GI50: 2.95 µM

MOLECULE: C/C(=N\NC(=S)N1CC2CCC(CC2)C1)c1ccccn1
GI50: 0.0113 µM

MOLECULE: CO/N=C(/C)c1cccc(Nc2cc(-c3ccccc3)nc3ccc(OC)cc23)c1
GI50: 71 µM

###

- Tested on: DU-145 prostate
- PROCEDURE_TEXT: NCI tumour cell line growth inhibition, 48 h

COMPOUND: Nc1ccccc1SC1CC(=O)N(c2ccc(Cl)c(Cl)c2)C1=O (stereo unspecified)
GI50: 27500 nM
--
COMPOUND: NC(=S)N/N=C/c1cc(-c2cccc(N)c2)ccn1
GI50: 1250 nM
--
COMPOUND: COC(C(=O)[C@@H](O)[C@@H](C)O)[C@@H]1Cc2cc3cc(O[C@H]4C[C@@H](O[C@H]5C[C@@H](O)[C@H](O)C(C)O5)[C@H](O)C(C)O4)c(C)c(O)c3c(O)c2C(=O)[C@H]1O[C@H]1C[C@@H](O[C@H]2C[C@@H](O[C@H]3C[C@@H](O)[C@H](OC)C(C)O3)[C@@H](O)C(C)O2)[C@H](O)C(C)O1 (stereo partly specified)
GI50: 18.8 nM
--
COMPOUND: O=c1oc2ccc(Br)cc2c(=O)n1-c1ccc(F)cc1F
GI50: 3820 nM
--
COMPOUND: O=C(Nc1ccc(-n2cc(-c3ccncc3)c(-c3ccc(O)c(Cl)c3)n2)cc1)Nc1cccc(Cl)c1Cl
GI50: 12800 nM
--
COMPOUND: COc1ccc(/C=C(/c2ccccc2)[N+](=O)[O-])cc1
GI50: 1650 nM
--
COMPOUND: CC[C@@]1(O)C(=O)OCc2c1cc1n(c2=O)Cc2c-1nc1cc(F)c(C)c3c1c2[C@@H](N)CC3
GI50: < 10 nM
--
COMPOUND: O=C(NCc1ccc(S(=O)(=O)c2cc(F)cc(F)c2)cc1)c1ccc2nccn2c1
GI50: 77.3 nM
--
COMPOUND: C[C@H]1CCC/C=C/[C@@H]2C[C@H](O)C[C@H]2[C@H](O)[C@@H](SCC(O)CO)CC(=O)O1 (stereo partly specified)
GI50: 17800 nM
--
COMPOUND: CN1CCN(c2ccc(Nc3ncc4cc(C#N)c(=O)n(C5CCCC5)c4n3)cc2)CC1
GI50: 2130 nM
--
COMPOUND: CO/N=C(/C)c1cccc(Nc2cc(-c3ccccc3)nc3ccc(OC)cc23)c1
GI50: 12000 nM

###

- System: MOLT-4 leukemia
- PROCEDURE_TEXT: NCI tumour cell line growth inhibition, 48 h; in the data active means GI50 below about 0.43 µM; inactive means the rest
Labels: active, inactive

COMPOUND: O=C(Nc1ccc(Cl)c(Cl)c1)Nc1ccccc1O
GROUP_LABEL: inactive
--
COMPOUND: O=C(NO)c1ccc(CN(c2cnccn2)c2cnccn2)cc1
GROUP_LABEL: inactive
--
COMPOUND: O=C([CH-]C(=O)c1ccccc1)c1ccccc1.O=C([CH-]C(=O)c1ccccc1)c1ccccc1.[O]=[U+2]=[O]
GROUP_LABEL: inactive
--
COMPOUND: O=C(N/N=C/c1ccc([N+](=O)[O-])o1)c1ccc(O)cc1
GROUP_LABEL: inactive
--
COMPOUND: COc1ccc2c3c(Nc4ccc(/C(C)=N/O)cc4)[nH]c4ccccc4c-3c(N=O)c2c1
GROUP_LABEL: inactive
--
COMPOUND: C[C@H]1CCC/C=C/[C@@H]2C[C@H](O)C[C@H]2[C@H](O)[C@@H](SCC(O)CO)CC(=O)O1 (stereo partly specified)
GROUP_LABEL: inactive
--
COMPOUND: O=c1[nH]c(=O)n([C@H]2CCCO2)cc1F
GROUP_LABEL: inactive
--
COMPOUND: O=C(N/N=C/c1c(Cl)cccc1Cl)c1ccc(C(F)(F)F)nc1Nc1cccc(C(F)(F)F)c1
GROUP_LABEL: active
--
COMPOUND: NC(=S)N/N=C/c1cc(-c2cccc(N)c2)ccn1
GROUP_LABEL: inactive
--
COMPOUND: COC(=O)CCC1=C(CC(=O)OC)C(C)=N/C1=C\c1[nH]c(-c2ccc[nH]2)cc1OC
GROUP_LABEL: inactive
--
COMPOUND: COc1ccc2c(Oc3ccc(NC(=O)c4c(C)n(CC(C)(C)O)n(-c5ccccc5)c4=O)nc3)ccnc2c1
GROUP_LABEL: inactive
--
COMPOUND: O=C1C(Cl)=C(Nc2ccccc2O)C(=O)N1Cc1ccccc1
GROUP_LABEL: inactive
--
COMPOUND: N.N.NCCCCCCCCCN.O=C([O-])CC(=O)[O-].O=C([O-])CC(=O)[O-].[Pt+4].[Pt+4]
GROUP_LABEL: inactive
--
COMPOUND: O=C(NCc1ccc(S(=O)(=O)c2cc(F)cc(F)c2)cc1)c1ccc2nccn2c1
GROUP_LABEL: inactive
--
COMPOUND: Clc1ccc(N=CNc2ccc(-c3nc4ccccc4o3)cc2)cc1
GROUP_LABEL: inactive
--
COMPOUND: COc1ccc(/C=C(/c2ccccc2)[N+](=O)[O-])cc1
GROUP_LABEL: inactive

Value source: PubChem BioAssay (NCI)
